TARGET ENTITY: HDAC 3 (Homo sapiens, UniProt O15379)
Sequence (O15379 whole entry, species assumed): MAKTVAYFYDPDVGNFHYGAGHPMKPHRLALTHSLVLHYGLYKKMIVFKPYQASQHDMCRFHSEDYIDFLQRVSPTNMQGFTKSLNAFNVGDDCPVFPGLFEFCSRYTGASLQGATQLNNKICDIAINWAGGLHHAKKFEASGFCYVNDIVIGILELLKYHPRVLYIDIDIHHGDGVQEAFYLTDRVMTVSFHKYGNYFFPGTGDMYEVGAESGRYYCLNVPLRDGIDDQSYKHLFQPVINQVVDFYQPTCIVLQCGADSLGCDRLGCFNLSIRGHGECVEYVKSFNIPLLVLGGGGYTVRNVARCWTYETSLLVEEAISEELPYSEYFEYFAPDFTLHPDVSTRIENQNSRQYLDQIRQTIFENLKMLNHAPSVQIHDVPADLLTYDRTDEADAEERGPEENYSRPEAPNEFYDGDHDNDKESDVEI
Sequence (Q9Y618 395-489 partner limits assumed, species assumed): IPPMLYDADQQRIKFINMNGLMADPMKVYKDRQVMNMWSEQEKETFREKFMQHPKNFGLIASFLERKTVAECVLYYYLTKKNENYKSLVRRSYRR
EXPERIMENT DESCRIPTION: Caliper HDAC inhibitor profiling assay (microfluidic mobility-shift), HDAC 3
Type: biochemical
EXPERIMENTAL SETUP: 1 hour at room temperature, read-out: IC50 (μM) HDAC3
READOUT TYPE: IC50 (µM)

> print(dat)
                                   compound                          target.entity  unit.spec  numeric.readout
1  C=C1CN(Cc2ccc(C(=O)Nc3ccccc3N)cc2)C(CC(=O)N2CCOCC2)c2ccccc21 (centres unmarked) [Example 4]  HDAC 3 (Homo sapiens, UniProt O15379)         µM             0.26
2  C=C1CN(S(=O)(=O)c2ccc(C(=O)Nc3ccccc3N)cc2)C(CC#N)c2ccccc21 (centres unmarked) [Example 15]  HDAC 3 (Homo sapiens, UniProt O15379)         µM              1.4
3  C=C1CN(Cc2ccc(C(=O)Nc3ccccc3N)cc2)C(CC(=O)O)c2ccccc21 (centres unmarked) [Example 9]  HDAC 3 (Homo sapiens, UniProt O15379)         µM             0.78

a: C=C1CN(Cc2ccc(C(=O)Nc3ccccc3N)cc2)C(CC(=O)OCC)c2ccccc21 (centres unmarked) [Example 1]
b: C=C1CN(Cc2ccc(C(=O)Nc3ccccc3N)cc2)C(CC(=O)Nc2ccccc2N)c2ccccc21 (centres unmarked) [Example 8]
c: C=C1CN(Cc2ccc(C(=O)Nc3ccccc3N)cc2)C(CC(=O)N2CCN(C)CC2)c2ccccc21 (centres unmarked) [Example 11]
d: C=C1CN(Cc2ccc(C(=O)Nc3ccccc3N)cc2)C(CC(=O)c2ccccc2)c2ccccc21 (centres unmarked) [Example 5]
Request: Arrange these compounds by their IC50, starting with the largest number. Answer format: list of labels, ordered as asked.
Result: d, a, c, b

a: C=C1CN(Cc2ccc(C(=O)Nc3ccccc3N)cc2)C(=O)c2ccccc21 [Example 7]
b: C=C1CN(Cc2ccc(C(=O)Nc3ccccc3N)cc2)C(CC(=O)N2CCCCC2)c2ccccc21 (centres unmarked) [Example 2]
Request: Sort a and b by IC50 descending and give the first. Return value: the label identifying the chosen record.
Result: b
